// provenance: paper PMC12416549

Target: T1, TNFR1 (Homo sapiens, UniProt P19438)
T1 chain: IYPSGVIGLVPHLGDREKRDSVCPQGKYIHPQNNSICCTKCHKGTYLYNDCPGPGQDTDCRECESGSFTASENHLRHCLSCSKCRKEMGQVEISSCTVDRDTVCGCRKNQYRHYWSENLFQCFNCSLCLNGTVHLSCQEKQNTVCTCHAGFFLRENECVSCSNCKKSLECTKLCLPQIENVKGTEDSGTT
Test: yeast display SC50

binder	apparent Kd (screen), nM
E44T (designed binder) MTLQELLREEALRRAEAEAFRYALELLAEKFPEQKEYLLDLAETIESQIRSLSGVDVEDVRKFLDKEWAWVKELLAEHPAELAEVEAARAARLAELRAEVEAKVAA	9.41
E9S (designed binder) MTLQELLRSEALRRAEAEAFRYALELLAEKFPEQKEYLLDLAEEIESQIRSLSGVDVEDVRKFLDKEWAWVKELLAEHPAELAEVEAARAARLAELRAEVEAKVAA	0.869
